Provenance of the data: patent US6201116A

assay: Fluorescence spectra / optical properties; type: physicochemical; settings: Table 4
Everything with λem (emission wavelength) lower than 500 nm is 0; everything else, including exactly 500 nm, is 1.

Look over these answered cases.
INSERT INTO assay_data (molecule, category_label) VALUES
  ('O=c1ccc2nc3ccc(O)cc3oc-2c1 [VIII, resorufin, reference compound]', 1),
  ('CN(C)c1ccc2cc3ccc(N(C)C)cc3[n+](C)c2c1', 1);

INPUT: Item Cc1cc2cc3cc(C)c(N)cc3[n+](C)c2cc1N with λem (emission wavelength) of 500 nm or above?
OUTPUT: 1

INPUT: Test whether the molecule Nc1c2ccccc2[n+](CCCS(=O)(=O)[O-])c2ccccc12 records λem (emission wavelength) of 500 nm or higher.
OUTPUT: 0

INPUT: Record Nc1ncnc2c1nc([O-])c1cccc[n+]12 ; criterion: λem (emission wavelength) no lower than 500 nm. Met?
OUTPUT: 1
